Molecular target: PKC epsilon (Homo sapiens, UniProt Q02156)
Construct: purchased Invitrogen P2282
Sequence (Q02156 1-737): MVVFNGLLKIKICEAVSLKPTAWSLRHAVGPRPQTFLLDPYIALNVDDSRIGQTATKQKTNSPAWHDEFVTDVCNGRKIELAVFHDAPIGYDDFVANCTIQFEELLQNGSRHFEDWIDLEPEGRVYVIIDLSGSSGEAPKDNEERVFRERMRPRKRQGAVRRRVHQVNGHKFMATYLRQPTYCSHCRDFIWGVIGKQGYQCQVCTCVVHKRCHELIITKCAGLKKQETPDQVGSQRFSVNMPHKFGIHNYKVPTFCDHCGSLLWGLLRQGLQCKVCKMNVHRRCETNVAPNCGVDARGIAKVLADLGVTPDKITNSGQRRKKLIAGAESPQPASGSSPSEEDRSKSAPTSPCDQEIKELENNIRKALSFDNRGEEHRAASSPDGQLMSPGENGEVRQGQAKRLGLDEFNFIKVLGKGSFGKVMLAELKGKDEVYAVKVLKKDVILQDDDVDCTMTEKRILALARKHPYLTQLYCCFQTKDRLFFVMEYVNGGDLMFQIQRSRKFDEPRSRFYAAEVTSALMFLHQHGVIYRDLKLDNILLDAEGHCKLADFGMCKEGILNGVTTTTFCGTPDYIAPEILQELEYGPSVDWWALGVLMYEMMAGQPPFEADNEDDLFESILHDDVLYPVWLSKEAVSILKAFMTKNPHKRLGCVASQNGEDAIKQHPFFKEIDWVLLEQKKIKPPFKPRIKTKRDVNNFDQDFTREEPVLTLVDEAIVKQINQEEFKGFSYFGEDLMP
Assay: Biochemical assay for PKC epsilon (fluorescence polarization, Protein Kinase C Assay Kit, Red)
Conditions: compounds of Formula XIV, Table 3; read-out: IC50 μM PKCε
Description: The compounds were tested for inhibition of PKC epsilon. The inhibition assays were performed with a fluorescence polarization (FP) assay using the commercially available Protein Kinase C Assay Kit, Red, from Invitrogen (Product ID. No. P2941), essentially in accordance with the protocol supplied by the manufacturer. […] The results were fitted to a curve using the XL-Fit algorithm and […] were calculated for each fitted curve, again using the XL-Fit algorithm.
Measured property: IC50

Below, each entry is followed by its recorded IC50 result.
compound="NC(CC(=O)NC1COc2ccccc21)c1ccc(C(=O)Nc2ccncc2)cc1 (centres unmarked)" measured_property=IC50 value="0.05 to 0.5 µM"
compound="NC(CC(=O)NC(c1ccc(F)cc1)C1CCC1)c1ccc(C(=O)Nc2ccncc2)cc1 (centres unmarked)" measured_property=IC50 value="0.05 to 0.5 µM"
compound="NC(CC(=O)Nc1ccc2[nH]ccc2c1)c1ccc(C(=O)Nc2ccncc2)cc1 (centres unmarked)" measured_property=IC50 value="0.5 to 5 µM"
compound="NC(CC(=O)NCCc1cccs1)c1ccc(C(=O)Nc2ccncc2)cc1 (centres unmarked)" measured_property=IC50 value="0.5 to 5 µM"
compound="NC(CC(=O)NCc1ccc(C(F)(F)F)cc1)c1ccc(C(=O)Nc2ccncc2)cc1 (centres unmarked)" measured_property=IC50 value="0.5 to 5 µM"

Identify the reported IC50 for the following entry. NC(CC(=O)NCCc1cccc(F)c1)c1ccc(C(=O)Nc2ccncc2)cc1 (centres unmarked) 5 to 50 µM

Retrieve IC50 measured for NC(CC(=O)NCCc1cccc(Cl)c1)c1ccc(C(=O)Nc2ccncc2)cc1 (centres unmarked) and print it. 0.5 to 5 µM

Specify IC50 for CC(C)(C)c1ccc(CCNC(=O)CC(N)c2ccc(C(=O)Nc3ccncc3)cc2)cc1 (centres unmarked) and stop. 5 to 50 µM

Name the recorded IC50 of the compound listed here: NC(CC(=O)NCC1CCCO1)c1ccc(C(=O)Nc2ccncc2)cc1 (centres unmarked) 0.5 to 5 µM

Give a short answer stating reported IC50 for COc1ccc(C(NC(=O)CC(N)c2ccc(C(=O)Nc3ccncc3)cc2)c2ccc(OC)cc2)cc1 (centres unmarked) . 0.5 to 5 µM

Output measured IC50 for this item: CC(=O)NCCNC(=O)CC(N)c1ccc(C(=O)Nc2ccncc2)cc1 (centres unmarked) 0.5 to 5 µM

State, in one line, measured IC50 of NC(CC(=O)NCc1ccc(F)c(C(F)(F)F)c1)c1ccc(C(=O)Nc2ccncc2)cc1 (centres unmarked) 0.5 to 5 µM

Provide one value: measured IC50 of Cc1cccc(Cl)c1CNC(=O)CC(N)c1ccc(C(=O)Nc2ccncc2)cc1 (centres unmarked) 0.5 to 5 µM

Consider the compound Cc1cccc(CNC(=O)CC(N)c2ccc(C(=O)Nc3ccncc3)cc2)c1 (centres unmarked) and give its recorded IC50. 0.5 to 5 µM

Give the reported value of IC50 for this record: COc1ccc(CNC(=O)CC(N)c2ccc(C(=O)Nc3ccncc3)cc2)cc1 (centres unmarked) 0.5 to 5 µM

# return recorded IC50 for entry NC(CC(=O)NC1CCSc2ccccc21)c1ccc(C(=O)Nc2ccncc2)cc1 (centres unmarked) 0.05 to 0.5 µM

State its IC50: Cc1ccc(CNC(=O)CC(N)c2ccc(C(=O)Nc3ccncc3)cc2)cc1Cl (centres unmarked) 0.5 to 5 µM

---

// values below are reported IC50
Biological target: PKC epsilon (Homo sapiens, UniProt Q02156)
Construct: purchased Invitrogen P2282
Sequence (Q02156 1-737): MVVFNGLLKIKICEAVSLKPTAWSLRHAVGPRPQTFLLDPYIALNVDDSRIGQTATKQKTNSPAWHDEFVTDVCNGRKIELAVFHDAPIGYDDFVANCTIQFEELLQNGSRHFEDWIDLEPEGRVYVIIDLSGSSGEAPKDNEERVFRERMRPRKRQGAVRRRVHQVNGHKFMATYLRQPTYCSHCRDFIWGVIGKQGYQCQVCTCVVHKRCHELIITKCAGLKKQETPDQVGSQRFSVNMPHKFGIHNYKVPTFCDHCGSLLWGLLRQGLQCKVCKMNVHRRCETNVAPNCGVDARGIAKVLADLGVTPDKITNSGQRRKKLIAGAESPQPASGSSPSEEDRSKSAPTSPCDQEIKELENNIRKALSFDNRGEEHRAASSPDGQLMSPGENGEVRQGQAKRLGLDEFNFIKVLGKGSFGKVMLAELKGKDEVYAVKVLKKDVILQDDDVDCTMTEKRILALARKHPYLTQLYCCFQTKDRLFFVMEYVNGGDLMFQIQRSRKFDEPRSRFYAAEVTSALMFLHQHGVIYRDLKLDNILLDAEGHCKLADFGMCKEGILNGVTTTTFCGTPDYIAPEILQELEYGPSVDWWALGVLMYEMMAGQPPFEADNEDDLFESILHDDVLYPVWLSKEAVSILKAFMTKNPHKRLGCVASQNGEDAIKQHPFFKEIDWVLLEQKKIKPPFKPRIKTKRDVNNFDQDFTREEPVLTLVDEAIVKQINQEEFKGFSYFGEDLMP
Assay: Biochemical assay for PKC epsilon (fluorescence polarization, Protein Kinase C Assay Kit, Red)
Conditions: read-out: IC50 μM PKCε

compound="Cc1ccc(CNC(=O)NCC(N)c2ccc(C(=O)Nc3ccncc3)cc2)cc1 (stereo not shown)" measured_target="PKC epsilon (Homo sapiens, UniProt Q02156)" value="0.5 to 5 µM"
compound="CN(CC(N)c1ccc(C(=O)Nc2ccncc2)cc1)C(=O)Cc1cc(F)ccc1F (stereo not shown)" measured_target="PKC epsilon (Homo sapiens, UniProt Q02156)" value="5 to 50 µM"
compound="CN(CC(N)c1ccc(C(=O)Nc2ccncc2)cc1)C(=O)C(C)(C)c1ccc(F)c(Cl)c1 (stereo not shown)" measured_target="PKC epsilon (Homo sapiens, UniProt Q02156)" value="5 to 50 µM"
compound="NC(CNC(=S)Nc1ccc(C(F)(F)F)cc1)c1ccc(C(=O)Nc2ccncc2)cc1 (stereo not shown)" measured_target="PKC epsilon (Homo sapiens, UniProt Q02156)" value="0.5 to 5 µM"
compound="CN(C)c1ccc(NC(=O)NCC(N)c2ccc(C(=O)Nc3ccncc3)cc2)cc1 (stereo not shown)" measured_target="PKC epsilon (Homo sapiens, UniProt Q02156)" value="0.5 to 5 µM"

Specify IC50 for NC(c1ccc(C(=O)Nc2ccncc2)cc1)C1CCCN1C(=O)C1CCOc2ccc(F)cc21 (stereo not shown) and stop. 0.5 to 5 µM

Specify measured IC50 for COc1ccc(C2(C(=O)N3CCCC3C(N)c3ccc(C(=O)Nc4ccncc4)cc3)CC2)cc1 (stereo not shown) . 0.5 to 5 µM

Look up IC50 of NC(c1ccc(C(=O)Nc2ccncc2)cc1)C1CCCN1C(=O)Cc1cccs1 (stereo not shown) and report it. 5 to 50 µM

---

biological target: PKC epsilon (Homo sapiens); construct: purchased Invitrogen P2282; test: Biochemical assay for PKC epsilon (fluorescence polarization, Protein Kinase C Assay Kit, Red); settings: read-out: IC50 μM PKCε
Measured property: IC50

Worked cases, answers included:
compound=N[C@@H](CC(=O)N[C@H]1CCCc2ccccc21)c1ccc(C(=O)Nc2ccncc2)cc1 measured_target="PKC epsilon (Homo sapiens)" value="5 to 50 µM"
compound="NC(c1ccc(C(=O)Nc2ccncc2)cc1)C1CCCN1C(=O)Cc1ccc(Cl)cc1F (centres unmarked)" measured_target="PKC epsilon (Homo sapiens)" value="5 to 50 µM"
compound="NC(c1ccc(C(=O)Nc2ccncc2)cc1)C1CCCN1C(=O)C1(c2ccc(F)c(Cl)c2)CC1 (centres unmarked)" measured_target="PKC epsilon (Homo sapiens)" value="0.5 to 5 µM"
compound="NC(CNC(=O)NCc1ccccc1)c1ccc(C(=O)Nc2ccncc2)cc1 (centres unmarked)" measured_target="PKC epsilon (Homo sapiens)" value="0.5 to 5 µM"
compound=N[C@@H](CC(=O)N[C@@H]1CCCc2ccccc21)c1ccc(C(=O)Nc2ccncc2)cc1 measured_target="PKC epsilon (Homo sapiens)" value="0.5 to 5 µM"
compound="CC(C)(C(=O)N1CCCC1C(N)c1ccc(C(=O)Nc2ccncc2)cc1)c1ccc(F)cc1 (centres unmarked)" measured_target="PKC epsilon (Homo sapiens)" value="0.5 to 5 µM"
compound="COc1ccc(CC(=O)N2CCCC2C(N)c2ccc(C(=O)Nc3ccncc3)cc2)cc1F (centres unmarked)" measured_target="PKC epsilon (Homo sapiens)" value="5 to 50 µM"

Kindly consider the entry below.
Provide only the value of recorded IC50 for COc1cccc(CC(=O)N2CCCC2C(N)c2ccc(C(=O)Nc3ccncc3)cc2)c1 (centres unmarked) 0.5 to 5 µM
